- EXPERIMENT NOTES: C18 corasil-octanol partition coefficient, log P of the compound in 0.01 M phosphate buffer at pH 7 by LC on C18 Corasil coated with 1-octanol
- MEASUREMENT CONDITIONS: octanol/0.01 M phosphate buffer (C18 Corasil-octanol)
QUANTITY NAME: logD

Here are 4 compounds together with their reported answers.
O=CN/C=C/c1ccccc1	1.95
N#Cc1ccc(/C=C/NC=O)cc1	1.62
O=CN/C=C/c1ccc(S(=O)(=O)c2ccccc2)cc1	1.95
CC(=O)Oc1ccc(/C=C/NC=O)cc1	1.32

1 = CN(C)c1ccc(/C=C/NC=O)cc1
2 = O=CN/C=C/c1ccc(I)cc1
Compare reported logD values for 1 and 2 . Which is lower? To answer, give the label that identifies your chosen option.
1
(1: 2.03, 2: 3.18)

###

- EXPERIMENT NOTES: C18 corasil-25 wt % MeOH partition coefficient, log K of the compound in 0.001 M phosphate buffer
- MEASUREMENT CONDITIONS: pH 7.4
QUANTITY NAME: log K

Sample answers from the record:
O=CN/C=C/c1ccc(I)cc1	1.14
O=CN/C=C/c1ccc(C(F)(F)F)cc1	1.09
CCCCOc1ccc(/C=C/NC=O)cc1	1.62

I = O=CN/C=C/c1ccc(Cl)cc1
II = O=CN/C=C/c1ccc2ccccc2c1
III = N#Cc1ccc(/C=C/NC=O)cc1
IV = CC(=O)Oc1ccc(/C=C/NC=O)cc1
V = O=CN/C=C/c1ccc([N+](=O)[O-])cc1
Sort low-to-high on log K, please. Give the labels in the order requested.
III, IV, V, I, II
(III: 0.04, IV: 0.16, V: 0.24, I: 0.79, II: 1.16)

P = CCOc1ccc(/C=C/NC=O)cc1
Q = CC(C)Oc1ccc(/C=C/NC=O)cc1
R = COc1ccc(/C=C/NC=O)cc1
Ascending sort, log K. Form entry: ranked labels (order as requested).
R, P, Q

1 = Cc1ccc(/C=C/NC=O)cc1
2 = O=CN/C=C/c1ccc(Br)cc1
3 = CC(C)(C)c1ccc(/C=C/NC=O)cc1
4 = O=CN/C=C/c1ccc(F)cc1
Order the entries by their reported log K, beginning at the minimum. Give the labels in the order requested.
4, 1, 2, 3
(4: 0.33, 1: 0.66, 2: 0.96, 3: 1.71)

A = O=CN/C=C/c1ccc(S(=O)(=O)c2ccccc2)cc1
B = CN(C)c1ccc(/C=C/NC=O)cc1
Consider A and B . Which of these has its log K at a higher number? Lab log: write the label of the selected item as the result.
A
(A: 0.78, B: 0.48)

###

- EXPERIMENT NOTES: C18 corasil-octanol partition coefficient, log P of the compound in 0.01 M phosphate buffer at pH 7 by LC on C18 Corasil coated with 1-octanol
- MEASUREMENT CONDITIONS: octanol/0.01 M phosphate buffer (C18 Corasil-octanol)
QUANTITY NAME: logD

Below: 5 compounds and their reported logD.
COc1ccc(/C=C/NC=O)cc1	1.94
O=CN/C=C/c1ccc([N+](=O)[O-])cc1	1.94
CSc1ccc(/C=C/NC=O)cc1	2.55
CCCCOc1ccc(/C=C/NC=O)cc1	3.32
CCN(CC)c1ccc(/C=C/NC=O)cc1	2.9

A = O=CN/C=C/c1ccc(C(F)(F)F)cc1
B = O=CN/C=C/c1ccc(F)cc1
// pick min by logD: A , B Choose, then provide that item's label.
B
(B: 2.11, A: 3.06)

###

- EXPERIMENT NOTES: C18 corasil-octanol partition coefficient, log P of the compound in 0.01 M phosphate buffer at pH 7 by LC on C18 Corasil coated with 1-octanol
- MEASUREMENT CONDITIONS: octanol/0.01 M phosphate buffer (C18 Corasil-octanol)
QUANTITY NAME: logD

CC(C)Oc1ccc(/C=C/NC=O)cc1	2.61
CCOc1ccc(/C=C/NC=O)cc1	2.31
O=CN/C=C/c1ccc2ccccc2c1	3.22
CC(C)(C)c1ccc(/C=C/NC=O)cc1	3.82
O=CN/C=C/c1ccc(Cl)cc1	2.7
Cc1ccc(/C=C/NC=O)cc1	2.45
O=CN/C=C/c1ccc(Br)cc1	2.87
